These entries and their values trace back to paper PMC7536268.

# assay-explanation: PK in plasma and lung tissue of neutropenic lung-infected mice
# study-conditions: female, ICR, mouse, in vivo, sc, 5 mg/kg, Plasma Cmax, colistin 5 mg/kg SC alone; neutropenic lung-infected mice; total plasma
Where a SMILES comes first, the peptide text is derived from it. Bridges are numbered along the chain shown (N, C = ends). [ ]: non-standard residue; d: D form. The star is where a group is joined. X1 = CC[C@H](C)CCCCC(=O)*; Dab = NCC[C@H](N)C(=O)O
reported-property: Cmax (ng/mL)
Report the value in ng/mL with no unit label.

Quick one: Cmax of CC[C@H](C)CCCCC(=O)N[C@@H](CCN)C(=O)N[C@H](C(=O)N[C@@H](CCN)C(=O)N[C@H]1CCNC(=O)[C@H]([C@@H](C)O)NC(=O)[C@H](CCN)NC(=O)[C@H](CCN)NC(=O)[C@H](CC(C)C)NC(=O)[C@@H](CC(C)C)NC(=O)[C@H](CCN)NC1=O)[C@@H](C)O [Colistin] (X1-[Dab]T[Dab][Dab][Dab][dL]L[Dab][Dab]T; lactam 4-C) ?
6330

###

# assay-explanation: PK in plasma and lung tissue of neutropenic lung-infected mice
# study-conditions: female, ICR, mouse, in vivo, sc, 5 mg/kg
Where a SMILES comes first, the peptide text is derived from it. Bridges are numbered along the chain shown (N, C = ends). [ ]: non-standard residue; d: D form. The star is where a group is joined. X1 = CC[C@H](C)CCCCC(=O)*; Dab = NCC[C@H](N)C(=O)O
reported-property: Tmax (min)
Unit min implied. Number only.

Name the reported Tmax value associated with the molecule CC[C@H](C)CCCCC(=O)N[C@@H](CCN)C(=O)N[C@H](C(=O)N[C@@H](CCN)C(=O)N[C@H]1CCNC(=O)[C@H]([C@@H](C)O)NC(=O)[C@H](CCN)NC(=O)[C@H](CCN)NC(=O)[C@H](CC(C)C)NC(=O)[C@@H](CC(C)C)NC(=O)[C@H](CCN)NC1=O)[C@@H](C)O [Colistin] (X1-[Dab]T[Dab][Dab][Dab][dL]L[Dab][Dab]T; lactam 4-C)
45

###

# assay-explanation: PK in plasma and lung tissue of neutropenic lung-infected mice
# study-conditions: female, ICR, mouse, in vivo, sc, 2.5 mg/kg, Plasma T1/2, colistin 2.5 mg/kg SC alone; neutropenic lung-infected mice; total plasma
Where a SMILES comes first, the peptide text is derived from it. Bridges are numbered along the chain shown (N, C = ends). [ ]: non-standard residue; d: D form. The star is where a group is joined. X1 = CC[C@H](C)CCCCC(=O)*; Dab = NCC[C@H](N)C(=O)O
reported-property: half-life
Write down the value, and be sure its unit follows.

Returns the measured half-life for the input compound. Input: CC[C@H](C)CCCCC(=O)N[C@@H](CCN)C(=O)N[C@H](C(=O)N[C@@H](CCN)C(=O)N[C@H]1CCNC(=O)[C@H]([C@@H](C)O)NC(=O)[C@H](CCN)NC(=O)[C@H](CCN)NC(=O)[C@H](CC(C)C)NC(=O)[C@@H](CC(C)C)NC(=O)[C@H](CCN)NC1=O)[C@@H](C)O [Colistin] (X1-[Dab]T[Dab][Dab][Dab][dL]L[Dab][Dab]T; lactam 4-C)
40.2 min

###

# assay-explanation: PK in plasma and lung tissue of neutropenic lung-infected mice
# study-conditions: female, ICR, mouse, in vivo, sc, 5 mg/kg, Plasma AUClast, colistin 5 mg/kg SC alone; neutropenic lung-infected mice; total plasma
Where a SMILES comes first, the peptide text is derived from it. Bridges are numbered along the chain shown (N, C = ends). [ ]: non-standard residue; d: D form. The star is where a group is joined. X1 = CC[C@H](C)CCCCC(=O)*; Dab = NCC[C@H](N)C(=O)O
reported-property: AUC(0-t) (ng·h/mL)
Numbers only; they are read as ng·h/mL.

For the molecule shown here, CC[C@H](C)CCCCC(=O)N[C@@H](CCN)C(=O)N[C@H](C(=O)N[C@@H](CCN)C(=O)N[C@H]1CCNC(=O)[C@H]([C@@H](C)O)NC(=O)[C@H](CCN)NC(=O)[C@H](CCN)NC(=O)[C@H](CC(C)C)NC(=O)[C@@H](CC(C)C)NC(=O)[C@H](CCN)NC1=O)[C@@H](C)O [Colistin] (X1-[Dab]T[Dab][Dab][Dab][dL]L[Dab][Dab]T; lactam 4-C) , give the reported AUC(0-t).
10500

###

# assay-explanation: PK in plasma and lung tissue of neutropenic lung-infected mice
# study-conditions: female, ICR, mouse, in vivo, sc, 2.5 mg/kg, Plasma Cmax, given in combination SC (2.5 mg/kg colistin, 3 mg/kg gamithromycin); total plasma
# Method: Five-week-old specific-pathogen-free female Institute of Cancer Research (ICR) mice weighing 20–22 g obtained from the Laboratory Animal Center of the Southern Medical University (SCXK 2016-0041, Guangzhou) were used in this experiment. […] The concentration of colistin and gamithromycin in plasma and lung tissue was measured using a previously reported method ([Ma et al., 2008]; [Huang et al., 2010]; [Fu et al., 2018]). […]
Where a SMILES comes first, the peptide text is derived from it. Bridges are numbered along the chain shown (N, C = ends). [ ]: non-standard residue; d: D form. The star is where a group is joined. X1 = CC[C@H](C)CCCCC(=O)*; Dab = NCC[C@H](N)C(=O)O
reported-property: Cmax (ng/mL)
Answer format: numeric, ng/mL implied, no suffix.

Query (compound): CC[C@H](C)CCCCC(=O)N[C@@H](CCN)C(=O)N[C@H](C(=O)N[C@@H](CCN)C(=O)N[C@H]1CCNC(=O)[C@H]([C@@H](C)O)NC(=O)[C@H](CCN)NC(=O)[C@H](CCN)NC(=O)[C@H](CC(C)C)NC(=O)[C@@H](CC(C)C)NC(=O)[C@H](CCN)NC1=O)[C@@H](C)O [Colistin] (X1-[Dab]T[Dab][Dab][Dab][dL]L[Dab][Dab]T; lactam 4-C) ; field requested: Cmax
3330
